# system_tested: human recombinant HDAC6 (Homo sapiens, UniProt Q9UBN7)
# Construct: purchased Calbiochem Inc. 382180
# Sequence (Q9UBN7 1-1215): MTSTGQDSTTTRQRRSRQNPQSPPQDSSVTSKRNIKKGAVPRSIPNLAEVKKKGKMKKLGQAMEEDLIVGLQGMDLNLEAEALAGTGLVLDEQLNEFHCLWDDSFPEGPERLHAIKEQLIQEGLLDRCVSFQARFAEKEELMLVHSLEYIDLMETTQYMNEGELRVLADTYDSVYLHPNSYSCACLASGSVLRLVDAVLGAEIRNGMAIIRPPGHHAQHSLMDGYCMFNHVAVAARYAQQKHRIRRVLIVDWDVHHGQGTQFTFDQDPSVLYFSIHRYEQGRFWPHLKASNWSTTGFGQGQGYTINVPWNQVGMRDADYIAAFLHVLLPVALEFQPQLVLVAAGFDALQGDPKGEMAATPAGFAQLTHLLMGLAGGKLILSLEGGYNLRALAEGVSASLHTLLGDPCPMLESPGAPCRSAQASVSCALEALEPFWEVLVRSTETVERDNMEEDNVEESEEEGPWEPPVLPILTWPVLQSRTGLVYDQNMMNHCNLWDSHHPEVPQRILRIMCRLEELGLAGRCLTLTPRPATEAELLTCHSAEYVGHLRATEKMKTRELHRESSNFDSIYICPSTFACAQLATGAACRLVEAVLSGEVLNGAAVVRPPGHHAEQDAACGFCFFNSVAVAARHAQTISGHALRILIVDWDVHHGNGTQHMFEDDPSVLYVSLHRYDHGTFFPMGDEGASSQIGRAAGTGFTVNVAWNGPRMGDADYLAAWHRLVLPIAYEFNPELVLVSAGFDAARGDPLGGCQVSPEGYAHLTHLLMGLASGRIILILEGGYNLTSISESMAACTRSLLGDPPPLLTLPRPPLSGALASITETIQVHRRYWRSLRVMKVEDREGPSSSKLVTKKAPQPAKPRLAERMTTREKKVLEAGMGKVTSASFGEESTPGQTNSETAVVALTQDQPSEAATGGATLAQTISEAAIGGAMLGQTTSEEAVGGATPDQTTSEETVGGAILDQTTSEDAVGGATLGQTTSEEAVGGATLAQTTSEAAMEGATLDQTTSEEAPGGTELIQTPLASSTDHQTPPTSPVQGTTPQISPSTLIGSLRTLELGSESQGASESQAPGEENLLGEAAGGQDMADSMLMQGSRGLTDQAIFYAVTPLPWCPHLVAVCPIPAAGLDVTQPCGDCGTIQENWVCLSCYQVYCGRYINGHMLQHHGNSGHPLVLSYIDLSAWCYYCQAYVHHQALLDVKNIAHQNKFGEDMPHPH
# experiment: In vitro HDAC enzyme activity inhibition assay (HDAC6)
# Assay type: biochemical
# details: HDAC6 over HDAC1
# Experimental: In order to confirm the selectivity of the compounds represented by Chemical Formula I of the present invention to HDAC6 through HDAC1 and HDAC6 enzyme activity inhibition experiments, a comparison experiment was performed using the material that has already been developed as a control group. HDAC enzyme activity was measured using the HDAC Fluorimetric Drug Discovery Kit (Enzo Life Sciences, Inc., BML-AK511, 516). […]
outcome_measure: HDAC6 selectivity (fold)

Past entries and their recorded results:
compound: CCC(=O)N1CCN(S(=O)(=O)N(Cc2cn3ccc(-c4nnc(C(F)F)o4)cc3n2)c2ccccc2)CC1
HDAC6 selectivity (fold): 431

compound: O=S(=O)(N1CCN(C2CCOCC2)CC1)N(Cc1cn2ccc(-c3nnc(C(F)F)o3)cc2n1)c1ccccc1
HDAC6 selectivity (fold): 397

[P] O=S(=O)(C1CCN(c2ncccn2)CC1)N(Cc1cn2ccc(-c3nnc(C(F)F)o3)cc2n1)c1cccc(F)c1
[Q] COC(=O)N1CCN(S(=O)(=O)N(Cc2cn3ccc(-c4nnc(C(F)F)o4)cc3n2)c2ccccc2)CC1
[R] CCN1CCC(S(=O)(=O)N(Cc2cn3ccc(-c4nnc(C(F)F)o4)cc3n2)c2cccc(F)c2)CC1
Arrange items by their HDAC6 selectivity (fold) values in increasing order. Use the labels to give the requested order.
Q, P, R

[1] COC(=O)N1CCC(S(=O)(=O)N(Cc2cn3ccc(-c4nnc(C(F)F)o4)cc3n2)c2ccccc2)CC1
[2] CCN1CCN(S(=O)(=O)N(Cc2cn3ccc(-c4nnc(C(F)F)o4)cc3n2)c2cccc(F)c2)CC1
Between 1 and 2 , whose recorded HDAC6 selectivity (fold) is greater? Give the label of your selection.
2
(2: 631 fold, 1: 432 fold)

[A] CC(CO)N1CCC(S(=O)(=O)N(Cc2cn3ccc(-c4nnc(C(F)F)o4)cc3n2)c2cccc(F)c2)CC1 (centres unmarked)
[B] COC(=O)N1CCN(S(=O)(=O)N(Cc2cn3ccc(-c4nnc(C(F)F)o4)cc3n2)c2cccc(F)c2)CC1
For this pair, A and B , which shows a numerically higher HDAC6 selectivity (fold)? Answer = label.
A

[P] O=S(=O)(C1CCN(C2CCOCC2)CC1)N(Cc1cn2ccc(-c3nnc(C(F)F)o3)cc2n1)c1ccccc1
[Q] O=S(=O)(C1CCN(C2COC2)CC1)N(Cc1cn2ccc(-c3nnc(C(F)F)o3)cc2n1)c1ccccc1
Among P and Q , which shows a numerically higher HDAC6 selectivity (fold) result? Field: selected label. Fill in the label of the entry you choose.
P

The reported numbers originate from patent US12466827B2.
